system: GII.4 (Houston) VLP, major capsid protein (Human norovirus GII.4 (Houston)); assay: ELASA; conditions: ELASA: VLPs 3 ug/ml coated, blocked with 5% skim milk in PBST plus unrelated DNA, 1 uM biotinylated aptamer (10 nM-2 uM for Kd), 1 h at RT, PBST washes
Measured binding signal of individual entries
Supply the numeric figure in T/N ratio, leaving out any unit text.

Observe how each entry below is paired with its result.
>>> endpoint_result("AGTATACGTATTACCTGCAGCCACCAGTGTGTTGAGGTTTGAGCACACTGATAGAGTGTCACGATATCTCGGAGATCTTGC [SMV-19]")
12.5
>>> endpoint_result("AGTATACGTATTACCTGCAGCTGACCGAGTGTCTGGTCATTTTCGATGTCTGTTGTTAGGCCGATATCTCGGAGATCTTGC [SMV-26]")
2.8
>>> endpoint_result("AGTATACGTATTACCTGCAGCCCATGTTTTGTAGGTGTAATAGGTCATGTTAGGGTTTCTGCGATATCTCGGAGATCTTGC [SMV-21]")
11.3

Kindly review the next sequence as well.
-- ask Supply recorded binding signal for AGTATACGTATTACCTGCAGCCATCTGTGTGAAGACTATATGGCGCTCACATATTTCTTTCCGATATCTCGGAGATCTTGC [SMV-25] here.
-- reply 11

---

test system: GII.7 VLP, major capsid protein (Human norovirus GII.7); assay: ELASA; conditions: ELASA: VLPs 3 ug/ml coated, blocked with 5% skim milk in PBST plus unrelated DNA, 1 uM biotinylated aptamer (10 nM-2 uM for Kd), 1 h at RT, PBST washes
Measured binding signal of individual entries

Observe how each entry below is paired with its result.
>>> endpoint_result("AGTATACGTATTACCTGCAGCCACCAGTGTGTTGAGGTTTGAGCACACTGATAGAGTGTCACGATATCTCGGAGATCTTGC [SMV-19]")
"4 T/N ratio"
>>> endpoint_result("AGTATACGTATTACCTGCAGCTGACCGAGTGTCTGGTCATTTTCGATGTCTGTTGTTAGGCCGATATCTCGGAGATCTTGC [SMV-26]")
"2.8 T/N ratio"
>>> endpoint_result("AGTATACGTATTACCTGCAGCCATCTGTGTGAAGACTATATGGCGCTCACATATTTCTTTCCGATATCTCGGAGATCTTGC [SMV-25]")
"9.1 T/N ratio"

Kindly review the next sequence as well.
-- ask Supply recorded binding signal for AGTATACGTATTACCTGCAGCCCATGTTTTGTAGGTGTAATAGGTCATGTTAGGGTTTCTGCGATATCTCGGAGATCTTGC [SMV-21] here.
-- reply 13.5 T/N ratio

---

Measured binding signal of individual entries
tested on: GI.4 VLP, major capsid protein (Human norovirus GI.4); experiment: ELASA; conditions: ELASA: VLPs 3 ug/ml coated, blocked with 5% skim milk in PBST plus unrelated DNA, 1 uM biotinylated aptamer (10 nM-2 uM for Kd), 1 h at RT, PBST washes
Supply the numeric figure in T/N ratio, leaving out any unit text.

>>> endpoint_result("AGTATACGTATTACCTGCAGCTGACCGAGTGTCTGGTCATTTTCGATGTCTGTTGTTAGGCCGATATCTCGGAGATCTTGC [SMV-26]")
1.1
>>> endpoint_result("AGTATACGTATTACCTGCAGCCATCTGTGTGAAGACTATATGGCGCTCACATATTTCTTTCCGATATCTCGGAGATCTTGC [SMV-25]")
5.6
>>> endpoint_result("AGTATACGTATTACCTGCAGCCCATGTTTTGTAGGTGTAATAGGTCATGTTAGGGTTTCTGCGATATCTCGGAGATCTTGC [SMV-21]")
4.3

Kindly review the next sequence as well.
-- ask Supply recorded binding signal for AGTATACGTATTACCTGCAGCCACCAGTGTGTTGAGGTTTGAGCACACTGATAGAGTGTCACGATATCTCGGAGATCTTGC [SMV-19] here.
-- reply 1.7
